Assayed system: human ADAMTS-5 (Homo sapiens (Human), UniProt Q9UNA0)
Sequence (Q9UNA0 262-930): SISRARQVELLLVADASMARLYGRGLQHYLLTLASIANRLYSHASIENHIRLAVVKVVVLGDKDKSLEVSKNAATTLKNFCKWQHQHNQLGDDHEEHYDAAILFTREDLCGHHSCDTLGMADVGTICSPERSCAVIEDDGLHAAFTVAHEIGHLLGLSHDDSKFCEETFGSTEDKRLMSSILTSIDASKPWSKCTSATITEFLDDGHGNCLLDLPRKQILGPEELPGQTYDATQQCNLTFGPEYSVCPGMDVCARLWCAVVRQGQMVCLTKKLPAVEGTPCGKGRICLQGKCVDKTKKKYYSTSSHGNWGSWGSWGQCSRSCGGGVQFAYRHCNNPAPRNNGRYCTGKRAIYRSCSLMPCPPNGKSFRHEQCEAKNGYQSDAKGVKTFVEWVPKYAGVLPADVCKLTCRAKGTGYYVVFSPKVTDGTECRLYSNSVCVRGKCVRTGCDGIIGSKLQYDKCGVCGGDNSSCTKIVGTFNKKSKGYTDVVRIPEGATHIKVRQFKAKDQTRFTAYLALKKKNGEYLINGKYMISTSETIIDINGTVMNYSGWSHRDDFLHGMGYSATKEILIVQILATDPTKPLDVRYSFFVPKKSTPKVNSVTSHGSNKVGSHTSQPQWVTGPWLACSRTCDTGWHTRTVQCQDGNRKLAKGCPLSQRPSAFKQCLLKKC
Test parameters: read-out: hADAMTS-5 potency IC50
pIC50: −log10 of the molar value.
Property: pIC50

{"Compound": "C[C@H]1CN(C(=O)CCC2(c3cccnc3)NC(=O)NC2=O)CCN1c1cccc(F)c1 (stereo partly shown)", "Assayed system": "human ADAMTS-5 (Homo sapiens (Human), UniProt Q9UNA0)", "Property": "pIC50", "Cmp": "=", "Readout value": 7.03}
{"Compound": "C[C@H]1CN(C(=O)CCC2(C3CC3)NC(=O)NC2=O)CCN1c1ccc(Cl)c(Cl)c1 (stereo partly shown) [compound 167]", "Assayed system": "human ADAMTS-5 (Homo sapiens (Human), UniProt Q9UNA0)", "Property": "pIC50", "Cmp": "=", "Readout value": 7.72}
{"Compound": "C[C@H]1CN(C(=O)CCC2(c3cccnc3)NC(=O)NC2=O)CCN1c1cc(F)cc(F)c1 (stereo partly shown)", "Assayed system": "human ADAMTS-5 (Homo sapiens (Human), UniProt Q9UNA0)", "Property": "pIC50", "Cmp": "=", "Readout value": 7.32}
{"Compound": "CC(CC1(c2ccccn2)NC(=O)NC1=O)C(=O)N1CCN(c2cc(Cl)cc(Cl)c2)CC1 (stereo not shown) [compound 231]", "Assayed system": "human ADAMTS-5 (Homo sapiens (Human), UniProt Q9UNA0)", "Property": "pIC50", "Cmp": "=", "Readout value": 7.70}
{"Compound": "CC(CC1(C2CCOCC2)NC(=O)NC1=O)C(=O)N1CCN(c2cc(Cl)cc(Cl)c2)CC1 (stereo not shown)", "Assayed system": "human ADAMTS-5 (Homo sapiens (Human), UniProt Q9UNA0)", "Property": "pIC50", "Cmp": "=", "Readout value": 7.21}
{"Compound": "C[C@H]1CN(C(=O)CCC2(c3cn(C)cn3)NC(=O)NC2=O)CCN1c1cc(F)cc(F)c1 (stereo partly shown)", "Assayed system": "human ADAMTS-5 (Homo sapiens (Human), UniProt Q9UNA0)", "Property": "pIC50", "Cmp": "=", "Readout value": 7.29}
{"Compound": "Cc1cc(C2(CCC(=O)N3CCN(c4cc(F)cc(F)c4)[C@@H](C)C3)NC(=O)NC2=O)ccn1 (stereo partly shown)", "Assayed system": "human ADAMTS-5 (Homo sapiens (Human), UniProt Q9UNA0)", "Property": "pIC50", "Cmp": "=", "Readout value": 7.36}
{"Compound": "CC(CC1(C)NC(=O)NC1=O)C(=O)N1CCN(c2cc(F)cc(F)c2)[C@@H](C)C1 (stereo partly shown)", "Assayed system": "human ADAMTS-5 (Homo sapiens (Human), UniProt Q9UNA0)", "Property": "pIC50", "Cmp": "=", "Readout value": 7.52}
{"Compound": "CC(CC1(C)NC(=O)NC1=O)C(=O)N1CCN(c2cccc(Cl)c2)[C@@H](C)C1 (stereo partly shown)", "Assayed system": "human ADAMTS-5 (Homo sapiens (Human), UniProt Q9UNA0)", "Property": "pIC50", "Cmp": "=", "Readout value": 7.21}
{"Compound": "Cc1cccc(C2(CCC(=O)N3CCN(c4cccc(F)c4)[C@@H](C)C3)NC(=O)NC2=O)n1 (stereo partly shown)", "Assayed system": "human ADAMTS-5 (Homo sapiens (Human), UniProt Q9UNA0)", "Property": "pIC50", "Cmp": "=", "Readout value": 7.23}
{"Compound": "C[C@H]1CN(C(=O)CC[C@@]2(C3CC3)NC(=O)NC2=O)CCN1c1ccc(F)c(F)c1", "Assayed system": "human ADAMTS-5 (Homo sapiens (Human), UniProt Q9UNA0)", "Property": "pIC50", "Cmp": "=", "Readout value": 7.59}
{"Compound": "COCC1(CC(C)C(=O)N2CCN(c3cc(Cl)cc(Cl)c3)CC2)NC(=O)NC1=O (stereo not shown) [compound 427]", "Assayed system": "human ADAMTS-5 (Homo sapiens (Human), UniProt Q9UNA0)", "Property": "pIC50", "Cmp": "=", "Readout value": 7.70}
{"Compound": "C[C@H]1CN(C(=O)CCC2(C3CC3)NC(=O)NC2=O)CCN1c1cncnc1 (stereo partly shown)", "Assayed system": "human ADAMTS-5 (Homo sapiens (Human), UniProt Q9UNA0)", "Property": "pIC50", "Cmp": "<", "Readout value": 5.40}
{"Compound": "COC(CC1(C)NC(=O)NC1=O)C(=O)N1CCN(c2cc(F)cc(Cl)c2)[C@@H](C)C1 (stereo partly shown)", "Assayed system": "human ADAMTS-5 (Homo sapiens (Human), UniProt Q9UNA0)", "Property": "pIC50", "Cmp": "=", "Readout value": 6.94}
{"Compound": "CC(C)C(CC1(C)NC(=O)NC1=O)C(=O)N1CCN(c2cc(Cl)cc(Cl)c2)CC1 (stereo not shown)", "Assayed system": "human ADAMTS-5 (Homo sapiens (Human), UniProt Q9UNA0)", "Property": "pIC50", "Cmp": "=", "Readout value": 7.25}
{"Compound": "CCC1(CC(C)C(=O)N2CCN(c3ccc(F)c(Cl)c3)[C@@H](C)C2)NC(=O)NC1=O (stereo partly shown)", "Assayed system": "human ADAMTS-5 (Homo sapiens (Human), UniProt Q9UNA0)", "Property": "pIC50", "Cmp": "=", "Readout value": 7.60}
